target: Induced myeloid leukemia cell differentiation protein Mcl-1/BH3-interacting domain death agonist (Homo sapiens); assay: Inhibition of His-tagged Mcl-1/5-carboxyfluorescein-Bid (unknown origin) after 1 hr by fluorescence polarization assay
Sequence (Q07820 whole entry, the tested form may be a part): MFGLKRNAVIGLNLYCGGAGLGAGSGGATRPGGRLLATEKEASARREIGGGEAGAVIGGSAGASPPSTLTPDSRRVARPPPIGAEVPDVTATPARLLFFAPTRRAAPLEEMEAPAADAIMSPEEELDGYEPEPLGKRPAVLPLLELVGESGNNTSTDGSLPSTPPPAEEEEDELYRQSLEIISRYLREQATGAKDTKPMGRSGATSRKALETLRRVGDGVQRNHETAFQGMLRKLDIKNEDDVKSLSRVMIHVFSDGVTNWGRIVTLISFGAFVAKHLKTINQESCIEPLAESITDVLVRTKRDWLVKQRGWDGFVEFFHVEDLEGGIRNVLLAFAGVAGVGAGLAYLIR
Sequence (P55957 whole entry, further chain, the tested form may be a part): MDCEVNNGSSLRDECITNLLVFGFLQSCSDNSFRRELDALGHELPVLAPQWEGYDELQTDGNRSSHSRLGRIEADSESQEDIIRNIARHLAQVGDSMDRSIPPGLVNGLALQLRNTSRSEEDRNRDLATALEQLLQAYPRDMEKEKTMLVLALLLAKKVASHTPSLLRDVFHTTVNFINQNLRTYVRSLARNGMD
pKi: −log10 of the molar value.
readout: pKi

What measured pKi goes with CCCCCCCCCCCc1cc(O)cc(O)c1C(C)=O ? < 4.48

What measured pKi goes with CCCC/C=C\CCCCCCCc1cc(O)cc(O)c1C(C)=O ? < 4.48

What measured pKi goes with CCCC/C=C\CCCCCc1cc(O)cc(O)c1C(C)=O ? < 4.48
